Reported GI50 by item:
Tested on: UACC-257
Test: NCI tumour cell line growth inhibition, 48 h
Activity calls are given as the source filed them. Rule as the data show it: active = GI50 up to about 1.1 µM and inactive = higher. Peptide text beside a SMILES is read from it. * marks the point of attachment. Boc = CC(C)(C)OC(=O)*; OBn = c1ccc(CO*)cc1; Bn = c1ccc(C*)cc1

compound: CC[C@H](C)C1=C(O)[N@+]2([O-])Oc3ccc(-c4c(O)c(O)c(-c5ccc(O)cc5)c(OC(C)=O)c4OC(C)=O)cc3O[C@]2([C@@H](C)CC)C(=O)N1O
GI50: > 50 µM (inactive)

Indicate its recorded GI50; the compound in question is CC(C)CC(NC(=O)C(CCC(=O)OCc1ccccc1)NC(=O)OC(C)(C)C)C(=O)NC(COCc1ccccc1)C(=O)NC(Cc1ccccc1)C(=O)O (stereo not drawn) (Boc-E(OBn)LS(Bn)F-OH; configuration not given here)
> 100 µM (inactive)

Indicate its recorded GI50; the compound in question is CC1=CCC(C(C)(C)NC(=O)c2ccccc2)C/C1=N/O (stereo not drawn)
> 100 µM (inactive)
